- Test system: human hair follicle dermal papilla cells (hFDPC)
- PROCEDURE TEXT: Human follicle dermal papilla cells (hFDPC) proliferation assay
- Type: cell-based
- EXPERIMENTAL PARAMETERS: hFDPCs supplemented with BIO, BMP-2 and FGFβ
MEASURED QUANTITY: Percent Increase Proliferation of hFDPCs (%)

{"MOLECULE": "COc1ccccc1-n1c(SCc2cc(=O)oc3cc(O)ccc23)nc2ccccc2c1=O", "RESULT": "B (B represents 20-40%)"}
{"MOLECULE": "CCOC(=O)c1cnn(-c2ccc(C(=O)Nc3ccc(S(=O)(=O)CC)cc3)cc2)c1C", "RESULT": "B (B represents 20-40%)"}

###

- System: human hair follicle dermal papilla cells (hFDPC)
- PROCEDURE TEXT: Human follicle dermal papilla cells (hFDPC) proliferation assay
- Format: cell-based
- EXPERIMENTAL PARAMETERS: hFDPCs supplemented with BIO, BMP-2 and FGFβ
MEASURED QUANTITY: Percent Increase Proliferation of hFDPCs (%)

{"COMPOUND": "CCCC(=O)N1CCN(c2nnc(-c3ccc(C)cc3)c3ccccc23)CC1", "RESULT": "B (B represents 20-40%)"}
{"COMPOUND": "COc1cc([N+](=O)[O-])cc(/C=C2\\C(=O)NC(=O)N(C)C2=O)c1O", "RESULT": "B (B represents 20-40%)"}
{"COMPOUND": "CCC(=O)N1CCN(c2nnc(-c3ccc(C)cc3)c3ccccc23)CC1", "RESULT": "B (B represents 20-40%)"}
{"COMPOUND": "COc1ccc(S(=O)(=O)N2CCC(C(=O)N3CCN(Cc4ccc5c(c4)OCO5)CC3)CC2)cc1C", "RESULT": "B (B represents 20-40%)"}
{"COMPOUND": "CC1(c2ccccc2)NC(=O)N(Cc2cc(=O)n3ccccc3n2)C1=O (stereo not drawn)", "RESULT": "B (B represents 20-40%)"}
{"COMPOUND": "C=CCc1cc(/C=C2\\C(=O)NC(=S)N(c3ccccc3OC)C2=O)cc(OCC)c1O", "RESULT": "B (B represents 20-40%)"}
{"COMPOUND": "CSc1nc(-c2ccco2)nn1S(C)(=O)=O", "RESULT": "B (B represents 20-40%)"}
{"COMPOUND": "CC(C)(C)Nc1nnc(SCc2cc(=O)oc3cc(O)ccc23)s1", "RESULT": "B (B represents 20-40%)"}
{"COMPOUND": "CCCCN1CCc2cc(/C=C3\\C(=O)NC(=O)N(C)C3=O)ccc21", "RESULT": "B (B represents 20-40%)"}
{"COMPOUND": "O=C1CNCc2[nH]c3ccccc3c2N1c1ccccc1", "RESULT": "B (B represents 20-40%)"}
{"COMPOUND": "C=CCc1cc(/C=C2\\C(=O)NC(=O)N(c3cc(C)cc(C)c3)C2=O)cc(OCC)c1O", "RESULT": "B (B represents 20-40%)"}
{"COMPOUND": "Cc1cc(C)n(Cc2ccc(NC(=O)c3cc(-c4ccc(C)c(C)c4)nc4ccccc34)cc2)n1", "RESULT": "B (B represents 20-40%)"}
